System: resistant NCI-H1581 cells
Experiment: Alamar blue proliferation assay, resistant NCI-H1581 cells
Assay type: cell-based
Conditions: Homo sapiens, NCI-H1581, 96 h, Resistant cells, 4 days incubation, repeated experiments
A collection of molecules and their measured pIC50
Bear in mind: pIC50 is minus log10 of a mol/L concentration; give just that figure.

C[C@@H](Oc1cc(-c2cnn(C3CCNCC3)c2)cnc1N)c1c(Cl)ccc(F)c1Cl [crizotinib, reference compound] ... 6.70

Please look at the following molecule next.
Record FC(F)(c1ccc2ncccc2c1)c1nnc2ccc(-c3ccncc3)nn12 [compound D] . Reported pIC50: 6.47

###

Test system: parental NCI-H1581 cells
Test: Alamar blue proliferation assay, parental NCI-H1581 cells
Assay type: cell-based
Conditions: Homo sapiens, NCI-H1581, 96 h, Parental cells + DMSO, 4 days incubation
pIC50: −log10 of the molar value.
Result Type: pIC50

Note to self: pIC50 recorded for FC(F)(c1ccc2ncccc2c1)c1nnc2ccc(-c3ccncc3)nn12 [compound D] was < 4.52

The origin of these recorded values is patent US10716787B2.
